- System Tested: CaMyo5
- Method Notes: SPOT peptide array binding signal intensity (averaged, normalized) (arbitrary units (background-subtracted, floor 0; scale differs between SH3 domains)); higher = stronger binding of the SH3 domain to the peptide
Parameter: SPOT peptide array binding signal intensity. Scope: all listed entries.
Would you mind answering with just the numeric figure?

* KFIPSRPAPKPPSSA | 24
* GKFIPSRPAPKPPSS | 24
* PLQSKIPMLPSRRTM | 30
* QLLNPNRRAPRRPLS | 6.75
* NPLPKEPRLPKRKVA | 4

INPUT: For the binder LPMNIQPDLPPRKIM , report SPOT peptide array binding signal intensity.
OUTPUT: 60

INPUT: Specify measured SPOT peptide array binding signal intensity for MFLISPPASPPPEFD .
OUTPUT: 180

INPUT: Find the measured SPOT peptide array binding signal intensity of RKQRSIPLSPIVPES and report it.
OUTPUT: 3.5
